Entry source: patent US4914187A

# Test system: E. coli SKF 12140
# experiment_notes: agar-dilution MIC test
# Assay type: cell-based
parameter_measured: MIC (µg/mL)
# unit: µg/mL | format: bare number

What measured MIC goes with CC(=O)N[C@H]1[C@H](OC2c3ccc(c(Cl)c3)Oc3cc4cc(c3O)Oc3ccc(cc3Cl)CC3NC(=O)C(N)c5ccc(O)c(c5)Oc5cc(O)cc(c5)C(NC3=O)C(=O)NC4C(=O)NC3C(=O)NC2C(=O)NC(C(=O)OCc2ccc(C)cc2)c2cc(O)cc(O)c2-c2cc3ccc2O)O[C@H](CO)[C@@H](O)[C@@H]1O (some centres unmarked) ?
64

What measured MIC goes with CCCCOC(=O)C1NC(=O)C2NC(=O)C(NC(=O)C3NC(=O)C4NC(=O)C(Cc5ccc(c(Cl)c5)Oc5cc3cc(c5O)Oc3ccc(cc3Cl)C2O[C@@H]2O[C@H](CO)[C@@H](O)[C@H](O)[C@H]2NC(C)=O)NC(=O)C(N)c2ccc(O)c(c2)Oc2cc(O)cc4c2)c2ccc(O)c(c2)-c2c(O)cc(O)cc21.Cl (some centres unmarked) ?
128

What measured MIC goes with CC(=O)N[C@H]1[C@H](OC2c3ccc(c(Cl)c3)Oc3cc4cc(c3O)Oc3ccc(cc3Cl)CC3NC(=O)C(N)c5ccc(O)c(c5)Oc5cc(O)cc(c5)C(NC3=O)C(=O)NC4C(=O)NC3C(=O)NC2C(=O)NC(C(=O)OCCCl)c2cc(O)cc(O)c2-c2cc3ccc2O)O[C@H](CO)[C@@H](O)[C@@H]1O.Cl (some centres unmarked) ?
128

What measured MIC goes with CCOC(=O)C1NC(=O)C2NC(=O)C(NC(=O)C3NC(=O)C4NC(=O)C(Cc5ccc(c(Cl)c5)Oc5cc3cc(c5O)Oc3ccc(cc3Cl)C2O[C@@H]2O[C@H](CO)[C@@H](O)[C@H](O)[C@H]2NC(C)=O)NC(=O)C(N)c2ccc(O)c(c2)Oc2cc(O)cc4c2)c2ccc(O)c(c2)-c2c(O)cc(O)cc21.Cl (some centres unmarked) ?
128

What measured MIC goes with CC(=O)N[C@H]1[C@H](OC2c3ccc(c(Cl)c3)Oc3cc4cc(c3O)Oc3ccc(cc3Cl)CC3NC(=O)C(N)c5ccc(O)c(c5)Oc5cc(O)cc(c5)C(NC3=O)C(=O)NC4C(=O)NC3C(=O)NC2C(=O)NC(C(=O)OCc2ccccc2)c2cc(O)cc(O)c2-c2cc3ccc2O)O[C@H](CO)[C@@H](O)[C@@H]1O.O=C(O)C(F)(F)F (some centres unmarked) ?
64
